molecular target: MAPKAP-K2 (Homo sapiens, UniProt P49137); assay: MAPKAP-K2 enzyme activity inhibition (33P-ATP filter plate kinase assay); type: biochemical; conditions: MAPKAP-K2 inhibitory activity; assays conducted at typically 1-100 μM; further: key: +: active; ++: more active; +++: very active
Sequence (P49137 whole entry): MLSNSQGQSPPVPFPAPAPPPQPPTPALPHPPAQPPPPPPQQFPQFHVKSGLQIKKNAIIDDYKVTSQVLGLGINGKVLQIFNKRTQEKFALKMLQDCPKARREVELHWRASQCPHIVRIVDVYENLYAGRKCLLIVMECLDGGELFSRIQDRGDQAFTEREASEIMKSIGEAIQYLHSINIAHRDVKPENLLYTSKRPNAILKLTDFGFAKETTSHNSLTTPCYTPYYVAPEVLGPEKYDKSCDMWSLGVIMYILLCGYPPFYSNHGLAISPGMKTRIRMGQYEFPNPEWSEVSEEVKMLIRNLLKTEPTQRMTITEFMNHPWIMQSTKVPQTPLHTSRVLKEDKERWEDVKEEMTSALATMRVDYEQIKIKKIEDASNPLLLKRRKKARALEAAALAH
measurementKind: activity (efficacy against MAPKAP-K2)

Example entries begin here.
[[record]]
compound = "Cc1c(N[C@H]2CC[C@H](N)CC2)nc2ccnn2c1Nc1cccc(OCCN2CCNCC2)c1"
assayvalue = "++"

[[record]]
compound = "Cc1c(N[C@H]2CC[C@H](N)CC2)nc2ccnn2c1Nc1ccc(-c2ccc(N)cc2)cc1"
assayvalue = "+++"

[[record]]
compound = "CCOc1ccc(Nc2c(C)c(N[C@H]3CC[C@H](N)CC3)nc3ccnn23)cc1"
assayvalue = "+++"

[[record]]
compound = "Cc1c(N[C@H]2CC[C@H](N)CC2)nc2ccnn2c1Nc1ccc(OC2CCN(C)CC2)cc1"
assayvalue = "++"

[[record]]
compound = "CCc1c(N[C@H]2CC[C@H](N)CC2)nc2ccnn2c1Nc1ccc(OC)c(C(F)(F)F)c1"
assayvalue = "++"


Kindly review the next compound as well.
# input Return reported activity (efficacy against MAPKAP-K2); argument: Cc1c(N[C@H]2CC[C@H](N)CC2)nc2ccnn2c1Nc1ccc(-c2ccncc2)cc1
# output +++
